Experiment: Volume of distribution in dog
Type: ADME, organism-based, Canis lupus familiaris
Settings: in vivo, read-out: Vdss
Measured metric: Vd (L/kg)

Completed entries (count: 2):
In: Vd for CC(C)(C)N1CCC(c2cc(-c3ccc(F)cc3Cl)c3ccc(=O)n(-c4c(Cl)cccc4Cl)c3c2)CC1 ?
Out: 23.8

In: Entry CC(C)(C)N1CCC(c2cc3c(ccc(=O)n3-c3c(Cl)cccc3Cl)c(-c3ccc(F)cc3F)n2)CC1 please
Out: 23.8

P: CC(C)(C)N1CCC(c2cc(-c3ccc(F)cc3F)c3ccc(=O)n(-c4c(Cl)cccc4Cl)c3c2)CC1
Q: CC(C)(C)N1CCC(c2cc3c(ccc(=O)n3-c3c(Cl)cccc3Cl)c(-c3ccccc3Cl)n2)CC1
In: Identify the item whose Vd is the smaller number: P or Q Lab log: write the label of the selected item as the result.
Out: P
(P: 8.99 L/kg, Q: 15.1 L/kg)
